- target: T1, Cynomolgus monkey BCMA (cynomolgus monkey)
- T1 construct: Soluble analyte in SPR; also called cyBCMA; Cyno BCMA
- protocol-text: SPR, IgG immobilised, cyno BCMA analyte
pKd: −log10 of the molar value.
Each entry below carries its reported pKd.
measured-metric: pKd

COMBO_Rd4_0.6nM_C14 (antibody, V domains shown, IgG) VH: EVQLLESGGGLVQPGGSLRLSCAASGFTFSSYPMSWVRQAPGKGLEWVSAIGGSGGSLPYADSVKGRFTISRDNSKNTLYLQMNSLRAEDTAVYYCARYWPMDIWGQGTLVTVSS VL: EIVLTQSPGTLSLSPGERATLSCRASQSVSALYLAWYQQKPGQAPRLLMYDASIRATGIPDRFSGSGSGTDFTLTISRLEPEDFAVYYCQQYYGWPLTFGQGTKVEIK	9.73
A02_Rd4_0.6nM_C09 (antibody, V domains shown, IgG) VH: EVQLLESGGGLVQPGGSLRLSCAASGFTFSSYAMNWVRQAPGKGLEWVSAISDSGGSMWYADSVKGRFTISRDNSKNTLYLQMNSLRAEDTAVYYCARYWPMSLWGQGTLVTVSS VL: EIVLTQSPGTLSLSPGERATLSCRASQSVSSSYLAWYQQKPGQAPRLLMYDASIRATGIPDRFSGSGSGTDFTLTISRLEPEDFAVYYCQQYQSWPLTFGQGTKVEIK	10.09
COMBO_Rd4_0.6nM_C11 (antibody, V domains shown, IgG) VH: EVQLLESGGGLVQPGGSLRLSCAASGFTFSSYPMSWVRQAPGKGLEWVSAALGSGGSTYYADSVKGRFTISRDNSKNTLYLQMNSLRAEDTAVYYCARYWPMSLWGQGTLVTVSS VL: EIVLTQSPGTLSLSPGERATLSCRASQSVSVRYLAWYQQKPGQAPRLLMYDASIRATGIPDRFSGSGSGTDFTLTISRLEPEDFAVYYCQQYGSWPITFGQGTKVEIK	8.72
